I'd appreciate it if you could supply protein stability index values for the items below.
# ASSAY SUMMARY: protein stability index of a GFP-peptide fusion (yeast GPS) (PSI 1-4); higher = more stable; sorted into four equal gates, so the index is relative within each strain
# REPORTED CONDITIONS: pdr5∆
Quick one: just the number, no unit, thanks!

# protein stability index of PLVAHLGLYVGVDDQIL [YJL039C/NUP192] = 2.85

# protein stability index of LAAERKVTSTLLEQDTS [PRE9] = 2.58

# protein stability index of LIKAKNFLVFQGDVEQI [SMC1] = 3.15

# protein stability index of QDGGIMGSLINGITLAL [SKI6] = 2.58

# protein stability index of THEDLPKEVDGLEVGPV [IRR1] = 3.35

# protein stability index of RIGKHRKHPGGRGMAGG [RPL28] = 2.63

# protein stability index of TTKERKKSRLGNSFHLM [PRP8] = 2.83

# protein stability index of WSFYNGNVLINDTLPDE [SNU114] = 2.23

# protein stability index of TVRKSIACVLTVINEQQ [RPL35A] = 2.07

# protein stability index of DKDSTKEVASLPNKSTI [FAS2] = 3.1

# protein stability index of LQLIIFLRTQFLKLYVL [RGR1] = 1.4

# protein stability index of SASLFKQRKNPRRIAWT [RPL24A] = 2.9

# protein stability index of LFAESHDVLQKLNTLSE [YML103C/NUP188] = 3.17

# protein stability index of KKSVNKLDKQINMADRS [POP6] = 2.94

# protein stability index of LYEKLKQEIMMSDLFTF [ISW2] = 2.34

# protein stability index of EPLAIALSMGKSSAFVI [ARP7] = 2.02

# protein stability index of KNKGLVVSPYDYNHKRV [DIB1] = 3.19

# protein stability index of KKNVWRSINNLIQEHDS [BRN1] = 2.75

# protein stability index of YEKAQKDLENAQVEMKS [SMC1] = 3.29

# protein stability index of TESLRVENSVLIEKVDD [YIL149C/MLP2] = 2.98

# protein stability index of ERGQKVKNVKNSDLEFN [ARP9] = 1.96

# protein stability index of LPNLGTPDDDEIDVENH [RPN8] = 1.82

# protein stability index of SLNEVGTLKVILNLYSS [YML103C/NUP188] = 2.11

# protein stability index of KSYASLLAQLNGTVNNN [RPT3] = 1.84

# protein stability index of GQSEASLLNLLNISPFT [RPP0] = 2.1

# protein stability index of EEPSRVDPEQEAHNKAL [RPT4] = 3.31

# protein stability index of EDVVAISSRTFGQRAVL [RPS0A] = 3.03

# protein stability index of ANTGGQDKIELSEEETL [SNF2] = 2.8

# protein stability index of LDRPEYLKKREAGEVKD [RPL10] = 3.15

# protein stability index of AGNLITTPEINNFIVER [SRP68] = 3.07
